tested_on: HLA-A*30:01
assay_protocol: IEDB peptide-MHC binding, purified MHC/competitive/radioactivity; filed as Kd, often an IC50 or EC50 that approximates it; bounds were set here for any values at or beyond the usual limits of such assays
condition: source organism: Vaccinia virus WR
Friendly reminder: Kd below 0.9 nM is condition met, at or above is condition not met.

sequence_chain	label_class
SVRLLNYFK	condition met
KLKIALAKG	condition not met
LQRGRLPLV	condition not met
TTKATTQIA	condition not met
RYRFAFLYL	condition met
KLKFRFIIR	condition not met
FFKQTFGSL	condition not met

----------
# key: entry, value: Kd
tested_on: HLA-A*26:01
assay_protocol: IEDB peptide-MHC binding, purified MHC/competitive/radioactivity; filed as Kd, often an IC50 or EC50 that approximates it; bounds were set here for any values at or beyond the usual limits of such assays
condition: source organism: SARS coronavirus Tor2
measure: Kd (µM)

sequence_chain	limit_sign	endpoint_value
LTKHPNQEY	≥	34.3
IYNEKVAGF	=	3.55
LFCLLNRYF	=	1.14
PFVVSTGYHF	=	0.974
FTERSDKSY	=	6.23
AFLPFTLGI	≥	77.9
YYFMKFRRVF	=	1.75
LKEPCPSGTY	=	5.44
NKDGFLYVY	=	14.3
NMLRIMASL	=	18.2
PVDEYITTY	=	10.8
HYVRITGLY	=	0.149
LYIIKLVFL	≥	21
PYPDPSRIL	≥	77.9
VYDPLQPEL	≥	77.9
NTCDGNTFTY	≥	77.9

----------
// reported log10 Kd per item
tested_on: HLA-A*02:03
assay_protocol: IEDB peptide-MHC binding, purified MHC/competitive/radioactivity; filed as Kd, often an IC50 or EC50 that approximates it; bounds were set here for any values at or beyond the usual limits of such assays
condition: source organism: Vaccinia virus WR
measure: log10 Kd (log10 of the value in µM)

sequence_chain	tested_on	log10 Kd
LIYDDNIDSI	HLA-A*02:03	-1.58
LTTVFIKYV	HLA-A*02:03	-0.17
YIWIKNLET	HLA-A*02:03	0.07
TAATKRYPGV	HLA-A*02:03	1.02
VVECLTVPNI	HLA-A*02:03	1.29

----------
tested_on: HLA-A*33:01
assay_protocol: IEDB peptide-MHC binding, purified MHC/competitive/radioactivity; filed as Kd, often an IC50 or EC50 that approximates it; bounds were set here for any values at or beyond the usual limits of such assays
condition: source organism: Vaccinia virus WR
measure: Kd

sequence_chain	measure	endpoint_value
VSLVKKNKK	Kd	≥ 77.7 µM
NIRLTDTEY	Kd	≥ 77.7 µM
TSEKYSKGYK	Kd	≥ 70 µM
TLDDLAIKQY	Kd	≥ 70 µM

----------
Listed here are sequences together with their documented pKd.
tested_on: HLA-A*31:01
assay_protocol: IEDB peptide-MHC binding, purified MHC/competitive/radioactivity; filed as Kd, often an IC50 or EC50 that approximates it; bounds were set here for any values at or beyond the usual limits of such assays
condition: source organism: SARS coronavirus Tor2
pKd: −log10 of the molar value.

sequence_chain	pKd
ALYEQVVMDY	≤ 4.35
SQILPDPLK	≤ 4.60
VVMDYLDNLK	≤ 4.44

----------
tested_on: HLA-A*03:01
assay_protocol: IEDB peptide-MHC binding, purified MHC/competitive/radioactivity; filed as Kd, often an IC50 or EC50 that approximates it; bounds were set here for any values at or beyond the usual limits of such assays
condition: source organism: Vaccinia virus WR
measure: Kd

sequence_chain	endpoint_value
SSDSENNPEY	≥ 70.1 µM
QILDNAAKY	≥ 78 µM
SSESLVYGIR	≥ 34.8 µM
FIVPEFAKQY	≥ 70.1 µM
VSLVKKNKK	≥ 58.5 µM
